assay: Inhibition of porcine cerebral cortex Na+/K+ ATPase using 3-O-methylfluorescein phosphate and […] incubated for 30 mins by spectrophotometry; type: tissue-based, Sus scrofa
Please respond with True when measured IC50 is strictly beneath 40 µM, and with False in all other cases.

Problem: Is 40 µM strictly greater than the molecule's reported IC50? molecule: C[C@@H]1NC(=O)[C@@H](Cc2c[nH]c3ccccc23)n2c1nc1ccccc1c2=O [FUMIQUINAZOLINE F]
Solution: True

Problem: Is 40 µM strictly greater than the molecule's reported IC50? molecule: CC(C)[C@@H]1N[C@@H]2N(C1=O)c1ccccc1[C@]21C[C@@H]2C(=O)N[C@](C)(O1)c1nc3ccccc3c(=O)n12 [FUMIQUINAZOLINE L]
Solution: True

Problem: Is 40 µM strictly greater than the molecule's reported IC50? molecule: C[C@@H]1O[C@@H](O[C@H]2C[C@@H](O)[C@]3(CO)[C@H]4[C@H](O)C[C@]5(C)[C@@H](C6=CC(=O)OC6)CC[C@]5(O)[C@@H]4CC[C@]3(O)C2)[C@H](O)[C@H](O)[C@H]1O [OUABAIN]
Solution: True

Problem: Is 40 µM strictly greater than the molecule's reported IC50? molecule: CC(C)[C@H]1C(=O)N2c3ccccc3[C@]3(O)C[C@H](n4cnc5ccccc5c4=O)C(=O)N1[C@H]23
Solution: False

Problem: Is 40 µM strictly greater than the molecule's reported IC50? molecule: C[C@H]1C(=O)N2c3ccccc3[C@]3(O)C[C@@H](n4cnc5ccccc5c4=O)C(=O)N1[C@H]23
Solution: False

Problem: Is 40 µM strictly greater than the molecule's reported IC50? molecule: CC(C)[C@@H]1N[C@@H]2N(C1=O)c1ccccc1[C@]2(O)C[C@@H]1C(=O)N[C@@H](C)c2nc3ccccc3c(=O)n21
Solution: True

Problem: Is 40 µM strictly greater than the molecule's reported IC50? molecule: CC(C)[C@H]1C(=O)N2c3ccccc3[C@]3(O)C[C@@H](n4cnc5ccccc5c4=O)C(=O)N1[C@H]23
Solution: True

Problem: Is 40 µM strictly greater than the molecule's reported IC50? molecule: CC[C@H]1C(=O)N2c3ccccc3[C@]3(O)C[C@@H](n4cnc5ccccc5c4=O)C(=O)N1[C@H]23
Solution: True

----------
system: Salmonella typhimurium; experiment: Antimicrobial activity against Salmonella typhimurium incubated for 24 hrs; assay type: functional, Salmonella enterica subsp. enterica serovar Typhimurium; conditions: Salmonella enterica
Test Readout: MIC

# example entries with known answers
| Molecule | MIC |
| --- | --- |
| C[C@H]1C(=O)N2c3ccccc3[C@]3(O)C[C@@H](n4cnc5ccccc5c4=O)C(=O)N1[C@H]23 | > 100 µg/mL |
| C[C@@H]1NC(=O)[C@@H](Cc2c[nH]c3ccccc23)n2c1nc1ccccc1c2=O [FUMIQUINAZOLINE F] | > 100 µg/mL |
| CC(C)[C@H]1C(=O)N2c3ccccc3[C@]3(O)C[C@@H](n4cnc5ccccc5c4=O)C(=O)N1[C@H]23 | > 100 µg/mL |
| CC1(C)S[C@@H]2[C@H](NC(=O)[C@H](N)c3ccccc3)C(=O)N2[C@H]1C(=O)O [AMPICILLIN] | 0.78 µg/mL |

Problem: Read the entry CC(C)[C@@H]1N[C@@H]2N(C1=O)c1ccccc1[C@]21C[C@@H]2C(=O)N[C@](C)(O1)c1nc3ccccc3c(=O)n12 [FUMIQUINAZOLINE L] and write its reported MIC.
Solution: 100 µg/mL

Problem: Read the entry CC(C)[C@@H]1N[C@@H]2N(C1=O)c1ccccc1[C@]2(O)C[C@@H]1C(=O)N[C@@H](C)c2nc3ccccc3c(=O)n21 and write its reported MIC.
Solution: > 100 µg/mL

Problem: Read the entry CC(C)[C@H]1C(=O)N2c3ccccc3[C@]3(O)C[C@H](n4cnc5ccccc5c4=O)C(=O)N1[C@H]23 and write its reported MIC.
Solution: 100 µg/mL

Problem: Read the entry CC[C@H]1C(=O)N2c3ccccc3[C@]3(O)C[C@@H](n4cnc5ccccc5c4=O)C(=O)N1[C@H]23 and write its reported MIC.
Solution: > 100 µg/mL

----------
tested on: Staphylococcus aureus; experiment: Antimicrobial activity against Staphylococcus aureus incubated for 24 hrs; assay type: functional
MIC for assorted compounds

# example entries with known answers
| Chemical String | Reported Result |
| --- | --- |
| C[C@@H]1NC(=O)[C@@H](Cc2c[nH]c3ccccc23)n2c1nc1ccccc1c2=O | > 100 µg/mL |
| CC1(C)S[C@@H]2[C@H](NC(=O)[C@H](N)c3ccccc3)C(=O)N2[C@H]1C(=O)O | 0.78 µg/mL |
| CC(C)[C@@H]1N[C@@H]2N(C1=O)c1ccccc1[C@]21C[C@@H]2C(=O)N[C@](C)(O1)c1nc3ccccc3c(=O)n12 | > 100 µg/mL |

Shift focus to the following entry.
Problem: Read the entry CC(C)[C@@H]1N[C@@H]2N(C1=O)c1ccccc1[C@]2(O)C[C@@H]1C(=O)N[C@@H](C)c2nc3ccccc3c(=O)n21 and write its reported MIC.
Solution: > 100 µg/mL

----------
tested on: Proteus hauseri; assay: Antimicrobial activity against Proteus hauseri incubated for 24 hrs; format: functional
Test Readout: MIC

# example entries with known answers
| Chemical String | Reported Result |
| --- | --- |
| CC1(C)S[C@@H]2[C@H](NC(=O)[C@H](N)c3ccccc3)C(=O)N2[C@H]1C(=O)O | 0.39 µg/mL |
| CC(C)[C@@H]1N[C@@H]2N(C1=O)c1ccccc1[C@]21C[C@@H]2C(=O)N[C@](C)(O1)c1nc3ccccc3c(=O)n12 | > 100 µg/mL |
| C[C@@H]1NC(=O)[C@@H](Cc2c[nH]c3ccccc23)n2c1nc1ccccc1c2=O | 100 µg/mL |
| CC(C)[C@H]1C(=O)N2c3ccccc3[C@]3(O)C[C@@H](n4cnc5ccccc5c4=O)C(=O)N1[C@H]23 | > 100 µg/mL |
| CC(C)[C@@H]1N[C@@H]2N(C1=O)c1ccccc1[C@]2(O)C[C@@H]1C(=O)N[C@@H](C)c2nc3ccccc3c(=O)n21 | > 100 µg/mL |

Problem: Read the entry C[C@H]1C(=O)N2c3ccccc3[C@]3(O)C[C@@H](n4cnc5ccccc5c4=O)C(=O)N1[C@H]23 and write its reported MIC.
Solution: > 100 µg/mL

Problem: Read the entry CC(C)[C@H]1C(=O)N2c3ccccc3[C@]3(O)C[C@H](n4cnc5ccccc5c4=O)C(=O)N1[C@H]23 and write its reported MIC.
Solution: 100 µg/mL

Problem: Read the entry CC[C@H]1C(=O)N2c3ccccc3[C@]3(O)C[C@@H](n4cnc5ccccc5c4=O)C(=O)N1[C@H]23 and write its reported MIC.
Solution: > 100 µg/mL

----------
target: UniProt Q2FV99; assay: Inhibition of sortase A (Staphylococcus aureus)
The source made the active and inactive calls. No cut-off for these calls is given here.
Test Readout: inhibition

| Chemical String | Reported Result |
| --- | --- |
| CC(C)[C@H]1C(=O)N2c3ccccc3[C@]3(O)C[C@@H](n4cnc5ccccc5c4=O)C(=O)N1[C@H]23 | inactive |
| C[C@@H]1NC(=O)[C@@H](Cc2c[nH]c3ccccc23)n2c1nc1ccccc1c2=O | inactive |
| CC(C)[C@@H]1N[C@@H]2N(C1=O)c1ccccc1[C@]21C[C@@H]2C(=O)N[C@](C)(O1)c1nc3ccccc3c(=O)n12 | inactive |

----------
system: Staphylococcus aureus; test: Antimicrobial activity against Staphylococcus aureus incubated for 24 hrs; assay type: functional
MIC for assorted compounds

| Chemical String | MIC |
| --- | --- |
| CC(C)[C@H]1C(=O)N2c3ccccc3[C@]3(O)C[C@@H](n4cnc5ccccc5c4=O)C(=O)N1[C@H]23 | > 100 µg/mL |
| C[C@H]1C(=O)N2c3ccccc3[C@]3(O)C[C@@H](n4cnc5ccccc5c4=O)C(=O)N1[C@H]23 | > 100 µg/mL |
| CC(C)[C@H]1C(=O)N2c3ccccc3[C@]3(O)C[C@H](n4cnc5ccccc5c4=O)C(=O)N1[C@H]23 | 100 µg/mL |

Shift focus to the following entry.
Problem: Read the entry CC[C@H]1C(=O)N2c3ccccc3[C@]3(O)C[C@@H](n4cnc5ccccc5c4=O)C(=O)N1[C@H]23 and write its reported MIC.
Solution: > 100 µg/mL

Where do the numbers come from? From ChEMBL document CHEMBL3576787.
